Measured TSA (∆°C), thermal shift of IRAP values are reported for all entries that follow.
Target: IRAP (Homo sapiens, UniProt Q9UIQ6)
Construct: The screen was performed with the soluble truncated IRAP enzyme; made in house
Sequence (Q9UIQ6 155-1025 limits assumed): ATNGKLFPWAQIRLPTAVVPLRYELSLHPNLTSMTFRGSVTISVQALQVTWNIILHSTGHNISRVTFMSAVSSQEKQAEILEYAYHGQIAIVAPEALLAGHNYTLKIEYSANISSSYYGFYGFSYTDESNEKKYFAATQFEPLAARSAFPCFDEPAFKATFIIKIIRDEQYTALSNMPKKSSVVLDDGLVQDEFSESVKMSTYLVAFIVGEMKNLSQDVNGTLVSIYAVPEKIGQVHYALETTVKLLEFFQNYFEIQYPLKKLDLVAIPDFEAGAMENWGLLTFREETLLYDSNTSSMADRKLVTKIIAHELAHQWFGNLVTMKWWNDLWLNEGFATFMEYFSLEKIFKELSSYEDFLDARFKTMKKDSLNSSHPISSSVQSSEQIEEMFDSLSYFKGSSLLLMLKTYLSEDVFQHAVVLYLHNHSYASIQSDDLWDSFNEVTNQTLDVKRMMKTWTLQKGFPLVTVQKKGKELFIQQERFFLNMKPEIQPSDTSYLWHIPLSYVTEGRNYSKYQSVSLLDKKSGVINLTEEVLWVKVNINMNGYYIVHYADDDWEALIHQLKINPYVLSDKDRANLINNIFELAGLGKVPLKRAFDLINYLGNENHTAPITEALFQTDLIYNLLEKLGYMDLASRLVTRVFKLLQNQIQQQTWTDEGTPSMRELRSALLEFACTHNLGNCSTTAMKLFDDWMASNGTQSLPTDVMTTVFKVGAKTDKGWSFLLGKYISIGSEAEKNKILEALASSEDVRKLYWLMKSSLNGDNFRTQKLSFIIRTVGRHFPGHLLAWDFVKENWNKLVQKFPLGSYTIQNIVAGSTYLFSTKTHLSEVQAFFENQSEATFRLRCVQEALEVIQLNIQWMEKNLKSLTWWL
Assay: Thermal shift (TSA) IRAP assay
Format: binding
Details: screening hits at 30 µM, 1% DMSO
Provide only the numeric value, understood in °C.

The reported TSA (∆°C), thermal shift of IRAP of the compound Cc1ccc(-c2nc(C3CCCN3C(=O)NCc3ccccc3)n3ccccc23)cc1 (racemic) [QHL36] was 0.3

Lab note: measured TSA (∆°C), thermal shift of IRAP of COc1cc2c(cc1-c1cnco1)C(=O)N(C)C(C)(C=Cc1ccncc1)N2 (stereo not drawn) [QHL33] was 0.74

TSA (∆°C), thermal shift of IRAP in this record for CCOC(=O)c1c(Cl)cc(C)nc1N1CCCC(Cc2ccc(C(=O)N(C)C)cc2)C1 (stereo not drawn) [QHL39] : 0

====

Biological target: IRAP (Homo sapiens)
Construct: The screen was performed with the soluble truncated IRAP enzyme; made in house
Experiment: Orthogonal absorbance IRAP assay (L-Leucine para-nitroanilide cleavage)
Format: biochemical
Conditions: 1 mM L-Leucine p-Nitroanilide, 120 min RT
Description: The primary biochemical assay was developed to measure the enzymatic activity of IRAP. […] To establish an orthogonal assay, an alternative L-Leucine para-nitroanilide substrate was used, which IRAP turns over to L-Leucine and para-nitroaniline and is measurable by absorbance at 405 nm (Supplementary Figure S2B). To ensure biochemically sound, optimal, robust, and affordable assay conditions for large-scale screening, several factors need to be considered. […]
Assay Endpoint: Absorbance pIC50
// response body must contain only the number

[
  {
    "Molecule": "CCCCc1nc2ccn(Cc3cccc(C#N)c3)c(=O)c2n1Cc1cccc(C#N)c1",
    "Absorbance pIC50": 5.81
  },
  {
    "Molecule": "c1ccn(CCCSc2nnc3ccc(N4CCCC4)nn23)c1",
    "Absorbance pIC50": 5.36
  }
]

Next molecule, Absorbance pIC50 to be filled in.
Considering "COCCN1CCc2cnc(NCc3ccc(S(N)(=O)=O)cc3)cc21" , its Absorbance pIC50 with IRAP (Homo sapiens) was recorded as 5.51

====

LipE overview
Target: IRAP (Homo sapiens, UniProt Q9UIQ6)
Construct: The screen was performed with the soluble truncated IRAP enzyme; made in house
Test: Primary fluorescence IRAP assay (L-Leucine-7-amido-4-methylcoumarin cleavage)
Format: biochemical
Conditions: calculated from (pIC50Fluorescence − LogD)

Past entries and their recorded results:
[
  {
    "Molecule": "Fc1ccc(F)c(Cn2ccc3ncc(N4CCNCC4)cc32)c1Cl",
    "Assay Endpoint": "LipE",
    "Value Observed": 2.10
  },
  {
    "Molecule": "O=C(Cc1cc(N2CCCCC2)nc(-c2cccc(F)c2)n1)NO",
    "Assay Endpoint": "LipE",
    "Value Observed": 2.57
  },
  {
    "Molecule": "COc1cc(CN2C(Cc3ccc(S(C)(=O)=O)cc3)CCC2c2cccnc2)cc(OC)c1 (stereo not shown)",
    "Assay Endpoint": "LipE",
    "Value Observed": 1.15
  },
  {
    "Molecule": "CCn1c(=O)n(CC(=O)N(C)CCc2ccc(O)c3[nH]c(=O)sc23)c2ccccc21",
    "Assay Endpoint": "LipE",
    "Value Observed": 2.74
  }
]

# molecule O=C(NO)C1(CS(=O)(=O)N2CCC(c3ccc(F)cc3Cl)C2)CCC1 (stereo not shown) ; its LipE = 3.79

Notebook: "CC(C)n1cc(C(=O)N2CCc3n[nH]c(-c4cccc(F)c4)c3CC2)cn1" , LipE read as 2.30

// LipE value for "CC(C)[C@@H](CS(=O)(=O)N(C)Cc1sc2ccccc2c1Cl)C(=O)NO" : 2.71

Field LipE (entry "COc1cc(C(=O)N2CCc3n[nH]c(-c4cccs4)c3CC2)on1" ) reads 2.98

For O=C(NO)C(CS(=O)(=O)N1CCC(c2ccc(F)cc2Cl)C1)C1CCOCC1 (stereo not shown) the molecule record lists LipE as 4.89

Data point: Cc1ccc(-c2nc(C3CCCN3C(=O)NCc3ccccc3)n3ccccc23)cc1 (racemic) ; LipE = 0.29
